Test system: 616215-338-R-J1-PDC complex spheroid viability
Experiment: Anticancer human tumor 616215-338-R-J1-PDC patient-derived colon adenocarcinoma cell line growth inhibition [POLQ]
Conditions: second compound 1 µM; first compound 1 µM; stronger effect = lower value
Experimental: Multicellular complex tumor spheroid response to Polymerase (POL) inhibitors (novobiocin, ART-558, RP6685) in combination with a variety of drugs and investigational agents in selected tumor cell lines The POL inhibitors (novobiocin, ART-558, and RP6685) were evaluated both individually and in combination with standard of care and investigational anticancer small molecules within a complex spheroid model of solid tumors. . […]
Give viability, T/C for every item shown.
Field: numeric (%). Do not append units.

Name the reported viability, T/C value associated with the molecule CC(C)n1c(=O)n(C)c2cnc3cc(F)c(-c4ccc(OCCCN5CCCCC5)nc4)cc3c21 + Nc1ccc(C#CCN(C(=O)Cc2ncc(C(F)(F)F)cc2C(F)(F)F)c2ccc(F)cc2)nn1
104

I would be grateful if you could share the reported viability, T/C for O=C(c1cc(Cc2n[nH]c(=O)c3ccccc23)ccc1F)N1CCN(C(=O)C2CC2)CC1 + COC1C(OC(N)=O)C(O)C(Oc2ccc3c(O)c(NC(=O)c4ccc(O)c(CC=C(C)C)c4)c(=O)oc3c2C)OC1(C)C .
101

Request the reported viability, T/C associated with CC1COCCN1c1cc(C2(S(C)(=N)=O)CC2)nc(-c2ccnc3[nH]ccc23)n1 (stereo not given) + Nc1ccc(C#CCN(C(=O)Cc2ncc(C(F)(F)F)cc2C(F)(F)F)c2ccc(F)cc2)nn1
84.7

I am curious: what viability, T/C value has been reported for CCCS(=O)(=O)Nc1ccc(F)c(C(=O)c2c[nH]c3ncc(-c4ccc(Cl)cc4)cc23)c1F + COC1C(OC(N)=O)C(O)C(Oc2ccc3c(O)c(NC(=O)c4ccc(O)c(CC=C(C)C)c4)c(=O)oc3c2C)OC1(C)C ?
105

Field request: viability, T/C | item: O=C(Nc1ccc(O)c(NS(=O)(=O)c2ccc(F)cc2)c1)c1ccc(-c2ccccc2)cc1 + Nc1ccc(C#CCN(C(=O)Cc2ncc(C(F)(F)F)cc2C(F)(F)F)c2ccc(F)cc2)nn1
101

###

tested on: 616215-338-R-J1-PDC complex spheroid viability; assay: Anticancer human tumor 616215-338-R-J1-PDC cell line growth inhibition [POLQ]; settings: curve of first compound; second compound 0.1 µM;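 also: spheroids exposed to compounds for one week before readout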
Assign pIC50 to each entry below.
Just the number, please; pIC50 means minus log10 of the concentration in mol/L.

Quick one: pIC50 for C=CCn1c(=O)c2cnc(Nc3ccc(N4CCN(C)CC4)cc3)nc2n1-c1cccc(C(C)(C)O)n1 + Cc1cccc(N(C)C(=O)C2C(O)CCN2c2nc(C)cc(C(F)(F)F)c2C#N)c1 ?
6.27

pIC50 lookup needed for COc1cccc2c1C(=O)c1c(O)c3c(c(O)c1C2=O)CC(O)(C(=O)CO)CC3OC1CC(N)C(O)C(C)O1 (stereo not drawn) + COC1C(OC(N)=O)C(O)C(Oc2ccc3c(O)c(NC(=O)c4ccc(O)c(CC=C(C)C)c4)c(=O)oc3c2C)OC1(C)C , thanks.
6.12

I would be grateful if you could share the reported pIC50 for CCc1cc2c(N3CCc4c(cc(Cn5ccnc5)cc4-c4cn(C)nc4C(F)(F)F)C3=O)ccnc2c(OC)n1 + Nc1ccc(C#CCN(C(=O)Cc2ncc(C(F)(F)F)cc2C(F)(F)F)c2ccc(F)cc2)nn1 .
5.19

Which pIC50 is listed for CCCS(=O)(=O)Nc1ccc(F)c(C(=O)c2c[nH]c3ncc(-c4ccc(Cl)cc4)cc23)c1F + COC1C(OC(N)=O)C(O)C(Oc2ccc3c(O)c(NC(=O)c4ccc(O)c(CC=C(C)C)c4)c(=O)oc3c2C)OC1(C)C ?
5.23

If you can, please state the reported pIC50 value of CCc1c2c(nc3ccc(O)cc13)-c1cc3c(c(=O)n1C2)COC(=O)[C@]3(O)CC + Cc1cccc(N(C)C(=O)C2C(O)CCN2c2nc(C)cc(C(F)(F)F)c2C#N)c1 .
7.04

Entry CC(=O)O[C@H]1C(=O)[C@@]2(C)[C@H]([C@H](OC(=O)c3ccccc3)[C@]3(O)C[C@H](OC(=O)[C@H](O)[C@@H](NC(=O)c4ccccc4)c4ccccc4)C(C)=C1C3(C)C)[C@]1(OC(C)=O)CO[C@@H]1C[C@@H]2O + COC1C(OC(N)=O)C(O)C(Oc2ccc3c(O)c(NC(=O)c4ccc(O)c(CC=C(C)C)c4)c(=O)oc3c2C)OC1(C)C has what pIC50?
7.34

I'd like to know its pIC50. The molecule in question is Nc1ccn(C2OC(CO)C(O)C2(F)F)c(=O)n1 (stereo not drawn) + COC1C(OC(N)=O)C(O)C(Oc2ccc3c(O)c(NC(=O)c4ccc(O)c(CC=C(C)C)c4)c(=O)oc3c2C)OC1(C)C
7.18

What does the record list as pIC50 for CCc1cc2c(N3CCc4c(cc(Cn5ccnc5)cc4-c4cn(C)nc4C(F)(F)F)C3=O)cc(C)nc2c(OC)n1 + COC1C(OC(N)=O)C(O)C(Oc2ccc3c(O)c(NC(=O)c4ccc(O)c(CC=C(C)C)c4)c(=O)oc3c2C)OC1(C)C ?
5.04

Consider the molecule shown here: CC1COCCN1c1cc(C2(O)CC3CCC(C2)O3)c2cnn(-c3ccn[nH]3)c2n1 (stereo not drawn) + Nc1ccc(C#CCN(C(=O)Cc2ncc(C(F)(F)F)cc2C(F)(F)F)c2ccc(F)cc2)nn1 What is its recorded pIC50?
6.56

Bench note: what pIC50 did COc1cccc(OCCCN)c1-c1cc(Nc2cnc(C#N)cn2)n[nH]1 + Nc1ccc(C#CCN(C(=O)Cc2ncc(C(F)(F)F)cc2C(F)(F)F)c2ccc(F)cc2)nn1 show?
7.10

###

System: 616215-338-R-J1-PDC complex spheroid viability
Experiment: Anticancer human tumor 616215-338-R-J1-PDC cell line growth inhibition [POLQ];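 also: spheroids exposed to compounds for one week before readout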;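 as to viability, T/C: percent viability relative to DMSO vehicle wells taken as 100%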
Settings: second compound 0.1 µM; first compound 0.316 µM; stronger effect = lower value
Description: Multicellular complex tumor spheroid response to Polymerase (POL) inhibitors (novobiocin, ART-558, RP6685) in combination with a variety of drugs and investigational agents in selected tumor cell lines The POL inhibitors (novobiocin, ART-558, and RP6685) were evaluated both individually and in combination with standard of care and investigational anticancer small molecules within a complex spheroid model of solid tumors. . […]
observation.type: viability, T/C (%)
Please give a number only; it is taken to be in %.

I'd like to know its viability, T/C. The compound in question is CC1COCCN1c1cc(C2(S(C)(=N)=O)CC2)nc(-c2ccnc3[nH]ccc23)n1 (stereo not given) + Nc1ccc(C#CCN(C(=O)Cc2ncc(C(F)(F)F)cc2C(F)(F)F)c2ccc(F)cc2)nn1
94.3

Which viability, T/C is reported for this compound? CCCS(=O)(=O)Nc1ccc(F)c(C(=O)c2c[nH]c3ncc(-c4ccc(Cl)cc4)cc23)c1F + COC1C(OC(N)=O)C(O)C(Oc2ccc3c(O)c(NC(=O)c4ccc(O)c(CC=C(C)C)c4)c(=O)oc3c2C)OC1(C)C
102

Item under review: COc1ccc([C@@H](O)c2cc(-c3ncnc4cc(N5CCOCC5)ccc34)c(F)cc2Cl)nn1 + Nc1ccc(C#CCN(C(=O)Cc2ncc(C(F)(F)F)cc2C(F)(F)F)c2ccc(F)cc2)nn1 . Reported viability, T/C?
106

Which viability, T/C is reported for this compound? O=C(Nc1ccc(O)c(NS(=O)(=O)c2ccc(F)cc2)c1)c1ccc(-c2ccccc2)cc1 + Cc1cccc(N(C)C(=O)C2C(O)CCN2c2nc(C)cc(C(F)(F)F)c2C#N)c1
108

I'd like to know its viability, T/C. The compound in question is CNCc1ccc(-c2[nH]c3cc(F)cc4c3c2CCNC4=O)cc1 + Cc1cccc(N(C)C(=O)C2C(O)CCN2c2nc(C)cc(C(F)(F)F)c2C#N)c1
95.5

###

Test system: 616215-338-R-J1-PDC complex spheroid viability
Assay: Anticancer human tumor 616215-338-R-J1-PDC cell line growth inhibition [POLQ];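 also: spheroids exposed to compounds for one week before readout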;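 as to viability, T/C: percent viability relative to DMSO vehicle wells taken as 100%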
Conditions: second compound 10 µM; first compound 0.00316 µM; stronger effect = lower value
Method: Multicellular complex tumor spheroid response to Polymerase (POL) inhibitors (novobiocin, ART-558, RP6685) in combination with a variety of drugs and investigational agents in selected tumor cell lines The POL inhibitors (novobiocin, ART-558, and RP6685) were evaluated both individually and in combination with standard of care and investigational anticancer small molecules within a complex spheroid model of solid tumors. . […]
Provide the recorded viability, T/C for the entries that follow.
# number only, unit % dropped from output

Look up viability, T/C for this molecule: C=CCn1c(=O)c2cnc(Nc3ccc(N4CCN(C)CC4)cc3)nc2n1-c1cccc(C(C)(C)O)n1 + Cc1cccc(N(C)C(=O)C2C(O)CCN2c2nc(C)cc(C(F)(F)F)c2C#N)c1
109

Look up viability, T/C: CC[C@@]1(O)C(=O)OCc2c1cc1n(c2=O)Cc2cc3c(CN(C)C)c(O)ccc3nc2-1 + COC1C(OC(N)=O)C(O)C(Oc2ccc3c(O)c(NC(=O)c4ccc(O)c(CC=C(C)C)c4)c(=O)oc3c2C)OC1(C)C
96.2

Fill in the blank: the reported viability, T/C of COc1cccc(OCCCN)c1-c1cc(Nc2cnc(C#N)cn2)n[nH]1 + Nc1ccc(C#CCN(C(=O)Cc2ncc(C(F)(F)F)cc2C(F)(F)F)c2ccc(F)cc2)nn1 is ____.
91.7

State the recorded viability, T/C for this entry: Cn1ncnc1[C@H]1c2n[nH]c(=O)c3cc(F)cc(c23)N[C@@H]1c1ccc(F)cc1 + COC1C(OC(N)=O)C(O)C(Oc2ccc3c(O)c(NC(=O)c4ccc(O)c(CC=C(C)C)c4)c(=O)oc3c2C)OC1(C)C
103

For the molecule shown here, CC[C@@]1(O)C(=O)OCc2c1cc1n(c2=O)Cc2cc3c(CN(C)C)c(O)ccc3nc2-1 + Nc1ccc(C#CCN(C(=O)Cc2ncc(C(F)(F)F)cc2C(F)(F)F)c2ccc(F)cc2)nn1 , give the reported viability, T/C.
96.4
